# System: MDA-MB-435
# test_method_notes: NCI tumour cell line growth inhibition, 48 h
Listing of entries alongside the reported TGI.
measurement_label: TGI

{"columns": ["molecule", "result"],
 "data": [
  ["O=C(O)CCC(NC(=O)c1ccc(Nc2nc3cc(C(F)(F)F)ccc3nc2C(=O)O)cc1)C(=O)O (stereo not drawn)", "> 100 µM"],
  ["CC(C)(C)CC(C)(C)c1ccc(O)c(C[N+](C)(C)[O-])c1", "> 100 µM"],
  ["CCN1CCC(O)(/C=C/c2ccc(OC)cc2)C(C(=O)/C=C/c2ccc(OC)cc2)C1 (stereo not drawn)", "19 µM"],
  ["CSc1scc2c1/C(=N/NC(N)=O)CCC2", "> 100 µM"],
  ["Nc1ncc(-c2cccc(S(N)(=O)=O)c2)c2scc(-c3ccc(F)c(Cl)c3)c12", "10.1 µM"],
  ["N#CC(C#N)=C1C(=O)NC(N)=C1C#N", "> 100 µM"],
  ["CC(O)c1cc(C(=O)N[C@@H](C)Cn2ccc(-c3ccc(C#N)c(Cl)c3)n2)n[nH]1 (stereo partly drawn)", "> 100 µM"],
  ["O=C(O)c1cc2ccccc2c2c1C(=O)c1ccccc1-2", "> 100 µM"],
  ["Oc1ccc(N=Nc2ccccn2)c(O)c1", "> 100 µM"],
  ["NCCCNCCCCN1CC1", "> 100 µM"],
  ["CC[C@H](C)C(=O)O[C@H]1C[C@H](O)C=C2C=C[C@H](C)[C@H](CC[C@@H](O)C[C@@H](O)CC(=O)O)[C@H]21", "> 100 µM"],
  ["COC(=O)C1=C(C(=O)OC)SC2(S1)C(C(=O)OC)=C(C(=O)OC)Sc1c2ssc1=NC(C)(C)C", "3.08 µM"],
  ["O=C(NC(=O)c1ccccc1[N+](=O)[O-])Nc1ccc(Oc2ncc(Cl)cn2)c(C(F)(F)F)c1", "< 0.0123 µM"],
  ["O=C(O)/C(=C\\c1ccncc1)c1cccc2ccccc12", "> 100 µM"],
  ["COc1ccccc1C(=O)N(C)c1ccc(Cl)c(C(=O)OC(C)C)c1", "> 100 µM"],
  ["C[C@H]1COC2=C1C(=O)C(=O)c1c2ccc2c1CCCC2(C)C", "2.74 µM"],
  ["COc1cccc2c1n([O-])c1cccc(OC)c1[n+]2=O", "36.2 µM"],
  ["C=CC(C)(C)C(=C)C(=O)Nc1ccccc1I", "> 100 µM"]
]}

* * *

# Test system: M14 melanoma
# test_method_notes: NCI tumour cell line growth inhibition, 48 h
measurement_label: TGI

{"columns": ["compound", "measurement_label", "result"],
 "data": [
  ["CC(=O)N/C(=C\\c1ccc(Cc2nc3c([nH]2)C(=O)c2ccccc2C3=O)cc1)c1nc2c([nH]1)C(=O)c1ccccc1C2=O", "TGI", "> 100 µM"],
  ["Cn1cc(C2=C(N3CCOCC3)C(=O)NC2=O)c2ccccc21", "TGI", "> 25 µM"],
  ["O=C(CCCCC(=O)N/N=C\\c1ccccc1O)N/N=C\\c1ccccc1O", "TGI", "> 100 µM"],
  ["CC1(C)C(=O)/C(=C\\c2cccnc2)C[C@]2(C)[C@H]3CC[C@@H]4[C@@H](C(=O)/C=C/c5ccncc5)CC[C@@]4(C)[C@]3(C)CC[C@@H]12", "TGI", "4.93 µM"],
  ["O=c1oc2ccccc2c(O)c1C(C/C(CCN1CCCC1)=N\\Nc1ccccc1)c1ccccc1 (stereo unspecified)", "TGI", "> 100 µM"],
  ["O=C1NCCS(=O)(=O)N2CCC[C@@H]12", "TGI", "> 100 µM"]
]}

* * *

# System: NCI-H226 lung
# test_method_notes: NCI tumour cell line growth inhibition, 48 h
measurement_label: TGI

{"columns": ["compound", "system", "measurement_label", "result"],
 "data": [
  ["CCOC(=O)[C@@H]1ON2OC(OC3CCCC3(c3ccccc3)c3ccccc3)C(OC(C)=O)[C@H]3OC(=O)[C@@H]1C32 (stereo partly specified)", "NCI-H226 lung", "TGI", "> 100 µM"],
  ["O=C1CSc2cc([N+](=O)[O-])ccc2N1", "NCI-H226 lung", "TGI", "> 100 µM"],
  ["CCC[C@@H]1C(=O)N=C(N)N1C(=O)OCc1ccccc1", "NCI-H226 lung", "TGI", "> 100 µM"],
  ["O=C(N/N=C/c1cc(Br)cc(Br)c1[O-])c1ccccc1O.O=C(N/N=C/c1cc(Br)cc(Br)c1[O-])c1ccccc1O.[Ni+2]", "NCI-H226 lung", "TGI", "1.56 µM"],
  ["COc1cccc2c1n([O-])c1cccc(OC)c1[n+]2=O", "NCI-H226 lung", "TGI", "28.8 µM"],
  ["Cc1cccc2c(O)cc(=O)oc12", "NCI-H226 lung", "TGI", "> 100 µM"]
]}

* * *

# System: MDA-MB-231 breast
# test_method_notes: NCI tumour cell line growth inhibition, 48 h
Listing of entries alongside the reported TGI.
measurement_label: TGI

{"columns": ["given_smiles", "system", "result"],
 "data": [
  ["CSc1scc2c1/C(=N/NC(N)=O)CCC2", "MDA-MB-231 breast", "> 100 µM"],
  ["O=Nc1c(-c2c(O)[nH]c3ccc(Br)cc23)[nH]c2ccccc12", "MDA-MB-231 breast", "21.8 µM"],
  ["CC(=O)/C(=C/N1CCNC1=S)C(=O)Nc1ccccc1C", "MDA-MB-231 breast", "> 100 µM"]
]}

* * *

Listing of entries alongside the reported TGI.
# System: HL-60(TB) leukemia
# test_method_notes: NCI tumour cell line growth inhibition, 48 h
measurement_label: TGI

{"columns": ["given_smiles", "result"],
 "data": [
  ["COC(=O)c1c(O)ccc2c1c1c(n2Cc2ccccc2)C(=O)c2ccccc2C1", "> 100 µM"],
  ["O=C(CCCCC(=O)N/N=C\\c1ccccc1O)N/N=C\\c1ccccc1O", "> 100 µM"],
  ["CC[C@H](C)C(=O)O[C@H]1C[C@H](O)C=C2C=C[C@H](C)[C@H](CC[C@@H](O)C[C@@H](O)CC(=O)O)[C@H]21", "> 100 µM"]
]}

* * *

Listing of entries alongside the reported TGI.
# Test system: BT-549 breast
# test_method_notes: NCI tumour cell line growth inhibition, 48 h

{"columns": ["compound", "TGI"],
 "data": [
  ["Oc1ccc(Cl)cc1C1=NC(/N=C\\c2ccccc2)=NC(c2ccccc2)C1 (centres undefined)", "> 100 µM"],
  ["COc1ccc(Nc2nc(N)c(C(=O)c3cccs3)s2)cc1", "> 100 µM"],
  ["C=CCn1c(-c2ccc([N+](=O)[O-])cc2)csc1=N", "> 100 µM"],
  ["O=c1c2ccccc2nc(N/N=C/c2ccccc2O)n1-c1ccccc1", "> 100 µM"],
  ["Cc1cccc(Cc2cnc(NC(=O)CCc3ccc(C)o3)s2)c1", "> 100 µM"],
  ["C=CCC(C(=O)Nc1cccc2[nH]cnc12)C(=O)OCC (centres undefined)", "> 100 µM"],
  ["COc1ccc(/C=C\\c2cc(OC)c(OC)c(OC)c2)cc1O", "> 100 µM"],
  ["O=C(O)c1cc2ccccc2c2c1C(=O)c1ccccc1-2", "> 100 µM"],
  ["O=C(CCCCC(=O)N/N=C\\c1ccccc1O)N/N=C\\c1ccccc1O", "> 100 µM"]
]}

* * *

# Test system: BT-549 breast
# test_method_notes: NCI tumour cell line growth inhibition, 48 h
Listing of entries alongside the reported TGI.

{"columns": ["compound", "system", "TGI"],
 "data": [
  ["CC(=O)c1c2n(n(-c3ccccc3)c1=O)C(=O)c1nccnc1-2", "BT-549 breast", "> 100 µM"],
  ["CC(=O)OC1COC(Nc2nc(N)n(C)c(=O)c2N=O)C(OC(C)=O)C1OC(C)=O (stereo not drawn)", "BT-549 breast", "> 10 µM"],
  ["CC1=C(C)C(=O)C(C2=CC(=O)C=CC2=O)=C(C2=CC(=O)C=CC2=O)C1=O", "BT-549 breast", "> 100 µM"]
]}

* * *

Listing of entries alongside the reported TGI.
# Tested on: HOP-62 NSCLC
# test_method_notes: NCI tumour cell line growth inhibition, 48 h
measurement_label: TGI

{"columns": ["compound", "result"],
 "data": [
  ["CCN(CC)CC(=N)N(CC)c1ccccc1", "> 100 µM"],
  ["O=C(CCC(=O)C1CCC/C1=N/O)Nc1ccc(Cl)cc1 (stereo unspecified)", "> 100 µM"],
  ["CCN(CC)c1ccc(/C=C/C=C2\\NC(=O)NC2=O)cc1", "> 100 µM"],
  ["CC(=O)Nc1ccccc1NC1CC(C)N(c2ccccc2)N1C(C)=O (stereo unspecified)", "> 10 µM"],
  ["CN(C)CCCNCc1cccc2ccccc12", "> 100 µM"],
  ["CC(=O)c1cc(O)c2ccccc2c1O", "41.4 µM"],
  ["O=C1OCC2=C1C(c1ccccc1)c1cc3c(cc1N2CCO)OCCO3 (stereo unspecified)", "> 50 µM"],
  ["Cc1ccc(-c2cc(O)c(-c3ccc(C)cc3C)cc2O)c(C)c1", "25.9 µM"],
  ["O=[N+]([O-])C(Cl)=C/C(=C(\\Cl)SCc1ccccc1)[N+](=O)[O-]", "36.2 µM"],
  ["CC(=O)[CH-]C(C)=O.CC(=O)[CH-]C(C)=O.CC[O-].CC[O-].[Ti+4]", "> 100 µM"],
  ["C=C(C)CNC(=S)N(N)c1ccc2ccccc2c1", "> 100 µM"]
]}
